Cited source: ChEMBL document CHEMBL5291721

- ASSAYED SYSTEM: 5-hydroxytryptamine receptor 3A (Homo sapiens, UniProt P46098); note: assay procedure not described here
- Sequence (P46098 whole entry): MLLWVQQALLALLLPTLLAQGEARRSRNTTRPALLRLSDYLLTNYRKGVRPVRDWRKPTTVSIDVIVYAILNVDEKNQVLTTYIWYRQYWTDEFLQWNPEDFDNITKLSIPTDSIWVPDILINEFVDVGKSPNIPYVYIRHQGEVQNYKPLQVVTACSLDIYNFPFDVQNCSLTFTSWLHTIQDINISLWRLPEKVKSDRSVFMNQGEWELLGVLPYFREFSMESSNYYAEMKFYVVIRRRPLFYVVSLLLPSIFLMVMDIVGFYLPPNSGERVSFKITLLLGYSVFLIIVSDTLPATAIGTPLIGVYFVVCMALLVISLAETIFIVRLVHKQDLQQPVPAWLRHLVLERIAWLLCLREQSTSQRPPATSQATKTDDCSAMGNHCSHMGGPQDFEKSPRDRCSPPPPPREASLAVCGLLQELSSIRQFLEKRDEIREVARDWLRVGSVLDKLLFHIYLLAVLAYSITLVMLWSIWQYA
- Format: functional
REPORTED PROPERTY: AC50

COMPOUND: Nc1ccn([C@@H]2O[C@H](CO)[C@@H](O)C2(F)F)c(=O)n1
REPORTED PROPERTY: AC50
ASSAY RESULT: > 30 µM
//
COMPOUND: CC(=O)OCC(=O)[C@@]1(O)CC[C@H]2[C@@H]3CCC4=CC(=O)CC[C@]4(C)C3=CC[C@@]21C [ANECORTAVE ACETATE]
REPORTED PROPERTY: AC50
ASSAY RESULT: > 30 µM
//
COMPOUND: CC1(C)C(/C=C/C=C/C=C/C=C2\N(CCCCS(=O)(=O)O)c3ccc4ccccc4c3C2(C)C)=[N+](CCCCS(=O)(=O)[O-])c2ccc3ccccc3c21 [INDOCYANINE GREEN ACID FORM]
REPORTED PROPERTY: AC50
ASSAY RESULT: 13 µM
//
COMPOUND: C#Cc1cccc(Nc2ncnc3cc(OCCOC)c(OCCOC)cc23)c1
REPORTED PROPERTY: AC50
ASSAY RESULT: > 30 µM
//
COMPOUND: CCN(CC)CCOC(=O)c1ccc(N)cc1Cl
REPORTED PROPERTY: AC50
ASSAY RESULT: 11 µM
//
COMPOUND: CC(/C=C1\SC(=S)N(CC(=O)O)C1=O)=C\c1ccccc1
REPORTED PROPERTY: AC50
ASSAY RESULT: 13 µM
//
COMPOUND: Cc1cnc(NC(=O)C2=C(O)c3ccccc3S(=O)(=O)N2C)s1
REPORTED PROPERTY: AC50
ASSAY RESULT: > 10 µM
//
COMPOUND: Cc1cc2nc3c(=O)[nH]c(=O)nc-3n(C[C@H](O)[C@H](O)[C@H](O)COP(=O)(O)O)c2cc1C [RIBOFLAVIN 5'-PHOSPHATE]
REPORTED PROPERTY: AC50
ASSAY RESULT: > 30 µM
//
COMPOUND: CNC[C@H](O)c1cccc(O)c1
REPORTED PROPERTY: AC50
ASSAY RESULT: > 10 µM
//
COMPOUND: CCN(CC)C(=O)C1CN2CCc3cc(OC)c(OC)cc3C2CC1OC(C)=O (configuration not stated) [BENZQUINAMIDE]
REPORTED PROPERTY: AC50
ASSAY RESULT: > 30 µM
//
COMPOUND: Oc1c(I)cc(Cl)c2cccnc12
REPORTED PROPERTY: AC50
ASSAY RESULT: > 30 µM
//
COMPOUND: Cc1ccc2c(-c3ccccc3)nc(=O)n(C(C)C)c2c1
REPORTED PROPERTY: AC50
ASSAY RESULT: > 30 µM

* * *

- ASSAYED SYSTEM: Sodium-dependent dopamine transporter (Homo sapiens); note: assay procedure not described here
- Sequence (Q01959 whole entry): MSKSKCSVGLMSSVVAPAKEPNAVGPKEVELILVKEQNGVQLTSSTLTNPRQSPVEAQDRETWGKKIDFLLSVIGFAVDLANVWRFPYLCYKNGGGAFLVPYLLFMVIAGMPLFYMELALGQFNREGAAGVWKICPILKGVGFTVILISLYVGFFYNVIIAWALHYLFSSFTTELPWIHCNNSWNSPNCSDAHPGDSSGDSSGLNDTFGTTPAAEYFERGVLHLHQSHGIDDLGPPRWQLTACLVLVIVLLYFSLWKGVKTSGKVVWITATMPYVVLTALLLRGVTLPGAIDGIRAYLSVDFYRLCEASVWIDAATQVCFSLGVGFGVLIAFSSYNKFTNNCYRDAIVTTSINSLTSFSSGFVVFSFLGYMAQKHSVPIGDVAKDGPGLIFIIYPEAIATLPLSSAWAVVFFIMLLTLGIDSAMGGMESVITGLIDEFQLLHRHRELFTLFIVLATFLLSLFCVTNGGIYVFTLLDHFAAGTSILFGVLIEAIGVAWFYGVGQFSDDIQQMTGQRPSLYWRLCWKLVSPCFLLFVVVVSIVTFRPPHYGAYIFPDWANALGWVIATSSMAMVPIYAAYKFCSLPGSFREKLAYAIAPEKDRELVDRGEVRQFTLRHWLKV
Reported AC50 is given for each of the following compounds.
REPORTED PROPERTY: AC50

COMPOUND: CC(=O)Oc1ccccc1C(=O)Nc1ncc([N+](=O)[O-])s1 [NITAZOXANIDE]
REPORTED PROPERTY: AC50
ASSAY RESULT: 7.3 µM

COMPOUND: CC(=O)OCC(CCn1cnc2cnc(N)nc21)COC(C)=O [FAMCICLOVIR]
REPORTED PROPERTY: AC50
ASSAY RESULT: > 10 µM

COMPOUND: CC1(C)C(C=C(Cl)Cl)C1C(=O)OCc1cccc(Oc2ccccc2)c1 (stereo not given) [PERMETHRIN]
REPORTED PROPERTY: AC50
ASSAY RESULT: > 10 µM

COMPOUND: O=C1Nc2ccc(Cl)cc2C(c2ccccc2)=NC1O (stereo not given) [OXAZEPAM]
REPORTED PROPERTY: AC50
ASSAY RESULT: > 10 µM

COMPOUND: NC(=O)CCC/N=C(\c1ccc(Cl)cc1)c1cc(F)ccc1O [PROGABIDE]
REPORTED PROPERTY: AC50
ASSAY RESULT: > 10 µM

* * *

- ASSAYED SYSTEM: Amine oxidase [flavin-containing] A (Homo sapiens); note: assay procedure not described here
- Sequence (P21397 whole entry): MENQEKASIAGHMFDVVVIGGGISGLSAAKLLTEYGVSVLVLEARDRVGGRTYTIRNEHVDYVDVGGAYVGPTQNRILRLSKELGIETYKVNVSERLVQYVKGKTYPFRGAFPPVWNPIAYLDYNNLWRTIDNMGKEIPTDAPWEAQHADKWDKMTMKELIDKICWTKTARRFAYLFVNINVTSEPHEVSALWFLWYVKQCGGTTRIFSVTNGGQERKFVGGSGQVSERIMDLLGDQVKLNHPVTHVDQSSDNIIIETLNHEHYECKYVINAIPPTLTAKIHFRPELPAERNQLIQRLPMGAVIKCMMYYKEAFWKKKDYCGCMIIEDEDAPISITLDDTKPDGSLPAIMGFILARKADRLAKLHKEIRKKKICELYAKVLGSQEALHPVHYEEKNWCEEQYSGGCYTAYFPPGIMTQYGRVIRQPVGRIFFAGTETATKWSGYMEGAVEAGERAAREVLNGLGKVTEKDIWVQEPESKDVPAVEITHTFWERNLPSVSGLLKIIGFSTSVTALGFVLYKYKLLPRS
- Assay type: functional

COMPOUND: N=C(N)NCc1cccc([123I])c1 [IOBENGUANE I 123]
ASSAYED SYSTEM: Amine oxidase [flavin-containing] A (Homo sapiens); note: assay procedure not described here
AC50: 26.4 µM
--
COMPOUND: Cc1onc(-c2c(Cl)cccc2Cl)c1C(=O)N[C@@H]1C(=O)N2[C@@H]1SC(C)(C)[C@@H]2C(=O)O [DICLOXACILLIN]
ASSAYED SYSTEM: Amine oxidase [flavin-containing] A (Homo sapiens); note: assay procedure not described here
AC50: > 30 µM
--
COMPOUND: Cc1nnc(SCC2=C(C(=O)O)N3C(=O)[C@@H](NC(=O)Cn4cc(Cl)c(=O)c(Cl)c4)[C@H]3SC2)s1 [CEFAZEDONE]
ASSAYED SYSTEM: Amine oxidase [flavin-containing] A (Homo sapiens); note: assay procedure not described here
AC50: > 30 µM
--
COMPOUND: CN(CC(=O)O)C(=N)N [CREATINE]
ASSAYED SYSTEM: Amine oxidase [flavin-containing] A (Homo sapiens); note: assay procedure not described here
AC50: > 30 µM
--
COMPOUND: CN(C)CCCN1C(=O)c2cc([N+](=O)[O-])ccc2Oc2ccccc21
ASSAYED SYSTEM: Amine oxidase [flavin-containing] A (Homo sapiens); note: assay procedure not described here
AC50: > 30 µM
--
COMPOUND: NC(=O)c1nc(F)c[nH]c1=O
ASSAYED SYSTEM: Amine oxidase [flavin-containing] A (Homo sapiens); note: assay procedure not described here
AC50: > 30 µM
--
COMPOUND: C#Cc1cccc(Nc2ncnc3cc(OCCOC)c(OCCOC)cc23)c1 [ERLOTINIB]
ASSAYED SYSTEM: Amine oxidase [flavin-containing] A (Homo sapiens); note: assay procedure not described here
AC50: > 30 µM
--
COMPOUND: C[C@@H]1C[C@H]2[C@@H]3C[C@H](F)C4=CC(=O)C=C[C@]4(C)[C@@]3(Cl)[C@@H](O)C[C@]2(C)[C@H]1C(=O)COC(=O)C(C)(C)C [CLOCORTOLONE PIVALATE]
ASSAYED SYSTEM: Amine oxidase [flavin-containing] A (Homo sapiens); note: assay procedure not described here
AC50: > 30 µM
--
COMPOUND: CCC(=O)O[C@@H](O[P@](=O)(CCCCc1ccccc1)CC(=O)N1C[C@H](C2CCCCC2)C[C@H]1C(=O)O)C(C)C [FOSINOPRIL]
ASSAYED SYSTEM: Amine oxidase [flavin-containing] A (Homo sapiens); note: assay procedure not described here
AC50: > 30 µM
--
COMPOUND: CC(=O)/N=c1/sc(S(N)(=O)=O)nn1C [METHAZOLAMIDE]
ASSAYED SYSTEM: Amine oxidase [flavin-containing] A (Homo sapiens); note: assay procedure not described here
AC50: > 30 µM
--
COMPOUND: c1ccc2[nH]c(-c3cscn3)nc2c1 [THIABENDAZOLE]
ASSAYED SYSTEM: Amine oxidase [flavin-containing] A (Homo sapiens); note: assay procedure not described here
AC50: > 30 µM
--
COMPOUND: N[C@@H](Cc1c[nH]c2ccc(O)cc12)C(=O)O [OXITRIPTAN]
ASSAYED SYSTEM: Amine oxidase [flavin-containing] A (Homo sapiens); note: assay procedure not described here
AC50: > 30 µM
--
COMPOUND: CNC(=O)c1cc(Oc2ccc(NC(=O)Nc3ccc(Cl)c(C(F)(F)F)c3)c(F)c2)ccn1 [REGORAFENIB]
ASSAYED SYSTEM: Amine oxidase [flavin-containing] A (Homo sapiens); note: assay procedure not described here
AC50: > 30 µM
--
COMPOUND: CN1CCC[C@@H]1Cc1c[nH]c2ccc(CCS(=O)(=O)c3ccccc3)cc12
ASSAYED SYSTEM: Amine oxidase [flavin-containing] A (Homo sapiens); note: assay procedure not described here
AC50: > 30 µM
--
COMPOUND: C[C@@H](O)[C@H]1C(=O)N2C(C(=O)[O-])=C(SC3Cn4cnc[n+]4C3)[C@H](C)[C@H]12 (stereo partly drawn) [BIAPENEM]
ASSAYED SYSTEM: Amine oxidase [flavin-containing] A (Homo sapiens); note: assay procedure not described here
AC50: > 30 µM
--
COMPOUND: Nc1nc(N)nc(Nc2ccc([As]3SCC(CO)S3)cc2)n1 (stereo not drawn) [MELARSOPROL]
ASSAYED SYSTEM: Amine oxidase [flavin-containing] A (Homo sapiens); note: assay procedure not described here
AC50: > 30 µM
--
COMPOUND: CC[N+](C)(CC)CCOC(=O)C1c2ccccc2Oc2ccccc21 [METHANTHELINE]
ASSAYED SYSTEM: Amine oxidase [flavin-containing] A (Homo sapiens); note: assay procedure not described here
AC50: > 30 µM
--
COMPOUND: NC(=O)NCCC[C@H](N)C(=O)O [L-CITRULLINE]
ASSAYED SYSTEM: Amine oxidase [flavin-containing] A (Homo sapiens); note: assay procedure not described here
AC50: > 30 µM

* * *

Endpoint: AC50. System: Sodium-dependent serotonin transporter (Homo sapiens). Items follow. Note: assay procedure not described here.
Sequence (P31645 whole entry): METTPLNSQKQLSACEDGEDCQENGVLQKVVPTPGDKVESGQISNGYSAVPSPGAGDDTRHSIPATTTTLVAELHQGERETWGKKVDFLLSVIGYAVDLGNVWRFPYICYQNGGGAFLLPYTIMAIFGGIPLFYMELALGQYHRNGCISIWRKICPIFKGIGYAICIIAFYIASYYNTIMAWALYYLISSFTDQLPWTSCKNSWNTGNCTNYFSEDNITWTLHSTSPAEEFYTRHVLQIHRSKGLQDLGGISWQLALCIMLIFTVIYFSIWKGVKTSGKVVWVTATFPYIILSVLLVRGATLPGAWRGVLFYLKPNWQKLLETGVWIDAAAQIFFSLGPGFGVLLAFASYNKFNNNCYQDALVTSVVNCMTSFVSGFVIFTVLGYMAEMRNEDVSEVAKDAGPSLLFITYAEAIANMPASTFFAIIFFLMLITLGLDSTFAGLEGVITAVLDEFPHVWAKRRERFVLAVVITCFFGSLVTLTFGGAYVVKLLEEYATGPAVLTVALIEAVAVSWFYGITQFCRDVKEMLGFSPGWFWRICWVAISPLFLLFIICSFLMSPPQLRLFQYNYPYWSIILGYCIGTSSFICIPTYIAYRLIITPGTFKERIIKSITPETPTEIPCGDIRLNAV

COMPOUND: CCCCCCCCCCC[C@@H](C[C@@H]1OC(=O)[C@H]1CCCCCC)OC(=O)[C@H](CC(C)C)NC=O
AC50: > 30 µM

COMPOUND: NC(=O)NS(=O)(=O)c1ccc(N)cc1 [SULFACARBAMIDE]
AC50: > 30 µM

COMPOUND: Nc1ncnc(Nc2ccc(Cl)cc2)n1
AC50: > 30 µM

COMPOUND: CC(N)CCCC(C)(C)O (centres undefined)
AC50: > 30 µM

COMPOUND: CCCCCCCC(=O)N[C@H](CN1CCCC1)[C@H](O)c1ccc2c(c1)OCCO2
AC50: > 30 µM

COMPOUND: C[C@]1(COc2ccc(N3CCC(Oc4ccc(OC(F)(F)F)cc4)CC3)cc2)Cn2cc([N+](=O)[O-])nc2O1
AC50: 2.02 µM

COMPOUND: Cc1ccc([C@@H]2O[C@H](CO)[C@@H](O)[C@H](O)[C@H]2O)cc1Cc1ccc(-c2ccc(F)cc2)s1 [CANAGLIFLOZIN ANHYDROUS]
AC50: 26.1 µM

COMPOUND: Cc1cc2c(OCC(O)CNC(C)C)cccc2[nH]1 (centres undefined) [MEPINDOLOL]
AC50: > 30 µM

COMPOUND: CCCCOc1ccc(CC(=O)NO)cc1
AC50: > 30 µM
